This collection of values is drawn from PubChem BioAssay (NCATS).

Test: P-glycoprotein substrates identified in KB-8-5-11 adenocarcinoma cell line, qHTS therapeutic library screen (AID 1346987); further: nearly all actives have a fitted effect of over 65% in size
Conditions: KB-8-5-11 (P-gp overexpressing) viability, CellTiter-Glo, 72 h; series mostly up to 44.5 µM
Records with an inconclusive call do not appear. The source made the active and inactive calls. The call rests on the fitted dose curve; in most records, active means well fitted inhibition curve with a large enough effect; inconclusive means small, poorly fitted or top-dose-only effect; inactive means flat fitted curve, though single readings scatter.
measurement-kind: outcome

• CN(C)CC1CCOC1(c1ccccc1)c1ccccc1 (centres undefined) = inactive
• CC1(C)C=CN2C(=O)C3=CCCN3C(=O)[C@@H]2C[C@@]12Nc1ccccc1C2=O = inactive
• Cc1c(F)cc(C(=O)NC2CC2)cc1-c1c(F)cn2c(C(C)(C)C)nnc2c1F = inactive
• CC1(C(=O)O)CCCC2(C)C3=CCC4CC3(CCC12)CC4CO (centres undefined) = inactive
• CC(C)[N+]1(C)C2CCC1CC(OC(=O)C(CO)c1ccccc1)C2 (centres undefined) = inactive
• COC1=CC(=O)CC(C)C12Oc1cc(OC)cc(O)c1C2=O (centres undefined) = inactive
• COC(=O)c1ccccc1O[C@@H]1O[C@H](CO)[C@@H](O)[C@H](O)[C@H]1O[C@@H]1O[C@@H](C)[C@H](O)[C@@H](O)[C@H]1O = inactive
• C=C[C@H]1[C@H](O[C@@H]2O[C@H](CO)[C@@H](O)[C@H](O)[C@H]2O)OC=C(C(=O)OC)[C@H]1CC(=O)O = inactive
• CC(=O)OC[C@H]1O[C@H](O[C@]2(CO)O[C@H](CO)[C@@H](OC(=O)/C=C/c3ccccc3)[C@@H]2O)[C@H](O)[C@@H](O)[C@@H]1O = inactive
